Molecular target: HLA-A*11:01
Assay: IEDB peptide-MHC binding, purified MHC/direct/fluorescence; filed as Kd, often an IC50 or EC50 that approximates it; bounds were set here for any values at or beyond the usual limits of such assays
Conditions: source organism: Cryptosporidium parvum
assay metric: Kd

# input Recorded Kd for RKWGLDFCY , please?
# output ≥ 20 µM

---

Biological target: HLA-B*58:01
Experiment: IEDB peptide-MHC binding, purified MHC/direct/fluorescence; filed as Kd, often an IC50 or EC50 that approximates it; bounds were set here for any values at or beyond the usual limits of such assays
Conditions: source organism: Vaccinia virus Copenhagen
assay metric: Kd (µM)
Your answer should be a plain number; it is taken to be in µM.

# input Can you look up Kd on HLA-B*58:01 for DLGPAFTEL ?
# output 8.71

---

Molecular target: HLA-B*15:01
Test: IEDB peptide-MHC binding, purified MHC/direct/fluorescence; filed as Kd, often an IC50 or EC50 that approximates it; bounds were set here for any values at or beyond the usual limits of such assays
Details: source organism: Yersinia pestis
assay metric: Kd

# input Can you look up Kd on HLA-B*15:01 for TMPELAWAV ?
# output ≥ 20 µM

---

Target: HLA-B*15:01
Test: IEDB peptide-MHC binding, purified MHC/competitive/radioactivity; filed as Kd, often an IC50 or EC50 that approximates it; bounds were set here for any values at or beyond the usual limits of such assays
Conditions: source organism: Dengue virus 3 Martinique/1243/1999
Catalogue of sequences with associated pKd
The scale used: pKd is minus the common logarithm of the concentration in molar units.

Sample answers from the record:
{"primary sequence": "HMIAGVFFTF", "assay metric": "pKd", "measured number": 8.83}
{"primary sequence": "MVHQIFGSAY", "assay metric": "pKd", "measured number": 7.43}

# input Recorded pKd for AQMWSLMYF , please?
# output 9.48

---

Catalogue of sequences with associated pKd
Target: HLA-B*40:01
Experiment: IEDB peptide-MHC binding, purified MHC/direct/fluorescence; filed as Kd, often an IC50 or EC50 that approximates it; bounds were set here for any values at or beyond the usual limits of such assays
Details: source organism: Escherichia coli O157:H7
pKd: −log10 of the molar value.

Sample answers from the record:
{"primary sequence": "FIVEHINAM", "measurement target": "HLA-B*40:01", "pKd": "≤ 4.70"}
{"primary sequence": "VVPLYDTPL", "measurement target": "HLA-B*40:01", "pKd": "≤ 4.70"}

# input Recorded pKd for VSRDFDDVY , please?
# output ≤ 4.70

---

Molecular target: HLA-A*02:11
Assay: IEDB peptide-MHC binding, purified MHC/competitive/fluorescence; filed as Kd, often an IC50 or EC50 that approximates it; bounds were set here for any values at or beyond the usual limits of such assays
Details: source organism: Vibrio vulnificus
assay metric: Kd

# input Recorded Kd for DEWECTRDD , please?
# output ≥ 20 µM

---

Target: HLA-B*15:17
Assay: IEDB peptide-MHC binding, purified MHC/competitive/fluorescence; filed as Kd, often an IC50 or EC50 that approximates it; bounds were set here for any values at or beyond the usual limits of such assays
Details: source organism: Shigella flexneri 5 str. 8401
assay metric: Kd

# input Recorded Kd for FGALFMWLL , please?
# output ≥ 20 µM

---

Biological target: HLA-B*18:01
Assay: IEDB peptide-MHC binding, purified MHC/direct/fluorescence; filed as Kd, often an IC50 or EC50 that approximates it; bounds were set here for any values at or beyond the usual limits of such assays
Conditions: source organism: Giardia lamblia ATCC 50803
assay metric: Kd

# input Recorded Kd for RENQVAVVR , please?
# output ≥ 20 µM

---

Molecular target: HLA-B*40:02
Test: IEDB peptide-MHC binding, purified MHC/competitive/fluorescence; bounds were set here for any values at or beyond the usual limits of such assays
Conditions: source organism: Ateles geoffroyi
assay metric: IC50 (µM)
Your answer should be a plain number; it is taken to be in µM.

# input Recorded IC50 for LPADPASVL , please?
# output 3.3

---

Target: HLA-C*15:02
Assay: IEDB peptide-MHC binding, purified MHC/direct/fluorescence; filed as Kd, often an IC50 or EC50 that approximates it; bounds were set here for any values at or beyond the usual limits of such assays
Settings: source organism: Yersinia pestis Nepal516
assay metric: Kd

# input Recorded Kd for YVIKKSSPL , please?
# output 3.95 µM

---

Molecular target: HLA-B*18:01
Assay: IEDB peptide-MHC binding, purified MHC/competitive/fluorescence; filed as Kd, often an IC50 or EC50 that approximates it; bounds were set here for any values at or beyond the usual limits of such assays
Settings: source organism: Burkholderia pseudomallei K96243
pKd: −log10 of the molar value.
assay metric: pKd

# input Recorded pKd for LMRRFRFTV , please?
# output ≤ 4.70

---

Molecular target: HLA-A*23:01
Experiment: IEDB peptide-MHC binding, purified MHC/competitive/fluorescence; filed as Kd, often an IC50 or EC50 that approximates it; bounds were set here for any values at or beyond the usual limits of such assays
Settings: source organism: Vibrio vulnificus
pKd: −log10 of the molar value.
assay metric: pKd

# input Can you look up pKd on HLA-A*23:01 for DEWECTRDD ?
# output ≤ 4.70

---

Target: HLA-A*01:01
Assay: IEDB peptide-MHC binding, purified MHC/competitive/fluorescence; bounds were set here for any values at or beyond the usual limits of such assays
Details: source organism: Ateles geoffroyi
pIC50: −log10 of the molar value.
assay metric: pIC50

# input Can you look up pIC50 on HLA-A*01:01 for LPADPASVL ?
# output ≤ 4.70

---

Target: HLA-A*11:01
Experiment: IEDB peptide-MHC binding, purified MHC/competitive/fluorescence; bounds were set here for any values at or beyond the usual limits of such assays
Conditions: source organism: Ateles geoffroyi
assay metric: IC50

# input Recorded IC50 for LPADPASVL , please?
# output ≥ 20 µM

---

Catalogue of sequences with associated Kd
Molecular target: HLA-A*02:16
Assay: IEDB peptide-MHC binding, purified MHC/competitive/fluorescence; filed as Kd, often an IC50 or EC50 that approximates it; bounds were set here for any values at or beyond the usual limits of such assays
Details: source organism: Giardia lamblia ATCC 50803

{"primary sequence": "IANTTDHFF", "measurement target": "HLA-A*02:16", "Kd": "≥ 20 µM"}

In the following, a different sequence is considered.
# input Recorded Kd for ISKANWMTY , please?
# output ≥ 20 µM

---

Molecular target: HLA-B*15:01
Assay: IEDB peptide-MHC binding, purified MHC/direct/fluorescence; filed as Kd, often an IC50 or EC50 that approximates it; bounds were set here for any values at or beyond the usual limits of such assays
Conditions: source organism: Vibrio cholerae V52
pKd: −log10 of the molar value.
assay metric: pKd

# input Recorded pKd for MGMEQTMSV , please?
# output ≤ 4.70

---

Molecular target: HLA-B*46:01
Assay: IEDB peptide-MHC binding, purified MHC/competitive/fluorescence; filed as Kd, often an IC50 or EC50 that approximates it; bounds were set here for any values at or beyond the usual limits of such assays
Settings: source organism: Reston ebolavirus
pKd: −log10 of the molar value.
assay metric: pKd

# input Recorded pKd for TTDDSTSYY , please?
# output ≤ 4.70

---

Biological target: HLA-A*26:02
Assay: IEDB peptide-MHC binding, purified MHC/competitive/fluorescence; filed as Kd, often an IC50 or EC50 that approximates it; bounds were set here for any values at or beyond the usual limits of such assays
Settings: source organism: Influenza A virus (A/ruddy turnstone/NJ/60/1985(N9))
assay metric: Kd
Express the reported value numerically, then name its unit.

# input Recorded Kd for DWSGYSGSF , please?
# output 3.45 µM

---

Target: HLA-B*46:01
Assay: IEDB peptide-MHC binding, purified MHC/direct/fluorescence; filed as Kd, often an IC50 or EC50 that approximates it; bounds were set here for any values at or beyond the usual limits of such assays
Conditions: source organism: Influenza A virus
pKd: −log10 of the molar value.
assay metric: pKd

# input Recorded pKd for DWSGYSGSF , please?
# output ≤ 4.70

---

Catalogue of sequences with associated pIC50
Molecular target: HLA-A*11:01
Assay: IEDB peptide-MHC binding, purified MHC/competitive/fluorescence; bounds were set here for any values at or beyond the usual limits of such assays
Conditions: source organism: Variola virus
The scale used: pIC50 is minus the common logarithm of the concentration in molar units.

{"primary sequence": "STHKLSLTK", "pIC50": 6.72}

In the following, a different sequence is considered.
# input Recorded pIC50 for ASLTPKAQR , please?
# output 6.54

---

Biological target: HLA-A*69:01
Assay: IEDB peptide-MHC binding, purified MHC/direct/fluorescence; filed as Kd, often an IC50 or EC50 that approximates it; bounds were set here for any values at or beyond the usual limits of such assays
Conditions: source organism: Giardia lamblia ATCC 50803
assay metric: Kd

Sample answers from the record:
{"primary sequence": "KLLQICMWF", "Kd": "≥ 20 µM"}
{"primary sequence": "EFFDTEPQL", "Kd": "≥ 20 µM"}
{"primary sequence": "PTKCGENLY", "Kd": "12.9 µM"}
{"primary sequence": "KTPWDRFCK", "Kd": "≥ 20 µM"}

In the following, a different sequence is considered.
# input Recorded Kd for RENQVAVVR , please?
# output ≥ 20 µM
